- assayProcedure: Toxicity (LD50)
- recordedConditions: mouse, in vivo; ICR-strain mice; intravenous
propertyMeasured: LD50

Please indicate LD50 recorded for CCN1CCN(C(=O)NC(C(=O)N[C@]2(OC)C(=O)N3C(C(=O)O)=C(CSc4nnnn4C)CS[C@@H]32)c2cccs2)C(=O)C1=O (stereo partly shown) [Example T-1414]
≥ 5000 mg/kg

* * *

- System: Ps. aeruginosa IFO-3445
- assayProcedure: Minimum inhibitory concentration (MIC), Heart Infusion agar
- Type: cell-based
- recordedConditions: Pseudomonas aeruginosa, IFO3445; Ps. aeruginosa IFO-3445; 10^6 cells/ml; 20 hours, 37° C.; read-out: minimum inhibitory concentration (MIC)
Each entry below carries its recorded MIC.
Give the value, in units of µg/mL, as a plain number.

Determine its reported MIC: CCN1CCN(C(=O)NC(C(=O)N[C@]2(OC)C(=O)N3C(C(=O)O)=C(CSc4nncs4)CS[C@@H]32)c2cccs2)C(=O)C1=O (stereo partly drawn)
25

Supply recorded MIC for CCN1CCN(C(=O)NC(C(=O)N[C@]2(OC)C(=O)N3C(C(=O)O)=C(COC(C)=O)CS[C@@H]32)c2csc(N)n2)C(=O)C1=O (stereo partly drawn) here.
25

Give the reported MIC for this compound. CCN1CCN(C(=O)NC(C(=O)N[C@]2(OC)C(=O)N3C(C(=O)O)=C(CSc4nnnn4CCN(C)C)CS[C@@H]32)c2cccs2)C(=O)C1=O (stereo partly drawn)
50

* * *

Parameter log10(MIC): see the listing below.
- Test system: Prot. vulgaris GN-76
- assayProcedure: Minimum inhibitory concentration (MIC), Heart Infusion agar
- Format: cell-based
- recordedConditions: Proteus vulgaris, GN76; Prot. vulgaris GN-76; 10^6 cells/ml; 20 hours, 37° C.; read-out: minimum inhibitory concentration (MIC)
Give log10 of MIC, with MIC taken in µg/mL.

Known log10(MIC) results, listed for orientation:
CCN1CCN(C(=O)NC(C(=O)N[C@]2(OC)C(=O)N3C(C(=O)O)=C(CSc4nnnn4CCO)CS[C@@H]32)c2ccco2)C(=O)C1=O (stereo partly shown) : 0.19
CCN1CCN(C(=O)NC(C(=O)N[C@]2(OC)C(=O)N3C(C(=O)O)=C(CSc4nnnn4CC(=O)NO)CS[C@@H]32)c2cccs2)C(=O)C1=O (stereo partly shown) : -0.11
CCN1CCN(C(=O)NC(C(=O)N[C@]2(OC)C(=O)N3C(C(=O)O)=C(CSc4nnnn4CC(C)=NO)CS[C@@H]32)c2cccs2)C(=O)C1=O (stereo partly shown) : -0.11
C=Cn1nnnc1SCC1=C(C(=O)O)N2C(=O)[C@](NC(=O)C(NC(=O)N3CCN(CC)C(=O)C3=O)c3ccco3)(OC)[C@H]2SC1 (stereo partly shown) : 0.50

Read off the recorded log10(MIC) for CCN1CCN(C(=O)NC(C(=O)N[C@]2(OC)C(=O)N3C(C(=O)O)=C(CSc4nnnn4CCN(C)C)CS[C@@H]32)c2cccs2)C(=O)C1=O (stereo partly shown)
0.19

Give recorded log10(MIC). CCN1CCN(C(=O)NC(C(=O)N[C@]2(OC)C(=O)N3C(C(=O)O)=C(CSc4nnnn4CC(N)=O)CS[C@@H]32)c2cccs2)C(=O)C1=O (stereo partly shown)
-0.11

Kindly indicate its recorded log10(MIC). Item: CCN1CCN(C(=O)NC(C(=O)N[C@]2(OC)C(=O)N3C(C(=O)O)=C(CSc4nnn(CCN(C)C)n4)CS[C@@H]32)c2cccs2)C(=O)C1=O (stereo partly shown)
0.50

Give log10(MIC) for the following molecule: CCN1CCN(C(=O)NC(C(=O)N[C@]2(OC)C(=O)N3C(C(=O)O)=C(COC(C)=O)CS[C@@H]32)c2csc(N)n2)C(=O)C1=O (stereo partly shown)
0.50

Determine from records and report log10(MIC) for CCN1CCN(C(=O)NC(C(=O)N[C@]2(OC)C(=O)N3C(C(=O)O)=C(CSc4nnnn4C)CS[C@@H]32)c2cccs2)C(=O)C1=O (stereo partly shown) [drawing 22]
-0.70

Respond only with log10(MIC) recorded for CCN1CCN(C(=O)NC(C(=O)N[C@]2(OC)C(=O)N3C(C(=O)O)=C(CSc4nnnn4C)CS[C@@H]32)C2=CCC=CC2)C(=O)C1=O (stereo partly shown)
0.50

Name the recorded log10(MIC) of the item CCN1CCN(C(=O)NC(C(=O)N[C@]2(OC)C(=O)N3C(C(=O)O)=C(CSc4nnnn4C)CS[C@@H]32)c2csc(N)n2)C(=O)C1=O (stereo partly shown) in your answer.
-0.11
